IC50: recorded values
- ASSAYED SYSTEM: S2-receptor (Rattus norvegicus, UniProt P14842)
- Construct: Caudal arteries from fasted male rats; from tissue; host or cells: rat caudal artery, helical strips
- Sequence (P14842 whole entry): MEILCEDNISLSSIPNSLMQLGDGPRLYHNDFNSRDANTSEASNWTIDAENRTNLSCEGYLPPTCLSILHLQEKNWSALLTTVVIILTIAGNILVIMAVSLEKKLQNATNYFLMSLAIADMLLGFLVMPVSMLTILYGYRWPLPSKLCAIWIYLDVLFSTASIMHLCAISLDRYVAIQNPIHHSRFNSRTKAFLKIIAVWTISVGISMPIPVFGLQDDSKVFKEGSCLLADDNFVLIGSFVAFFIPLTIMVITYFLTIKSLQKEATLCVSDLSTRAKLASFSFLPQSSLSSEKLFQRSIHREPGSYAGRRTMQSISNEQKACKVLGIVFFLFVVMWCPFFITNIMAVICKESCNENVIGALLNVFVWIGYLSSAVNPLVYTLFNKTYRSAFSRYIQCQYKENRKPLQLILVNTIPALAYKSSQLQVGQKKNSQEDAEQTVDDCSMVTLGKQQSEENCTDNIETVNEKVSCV
- MEASUREMENT NOTES: antagonistic activity on the effect of serotonin on the caudal artery of the rat (caudal artery test)
- STATED CONDITIONS: rat caudal artery strips; serotonin 40 ng/ml; 5 minutes after adding the drug; read-out: ED50 (minimal concentration which reduces the amplitude of the serotonin-induced contraction to at least 50% of its normal value) (converted)
Write the number in pM without appending the unit.

Worked examples follow.
Please report the measured IC50 for COC1CN(CCc2c(C)nc3ccccn3c2=O)CCC1=C(c1ccc(F)cc1)c1ccc(F)cc1 (centres unmarked) tested on S2-receptor (Rattus norvegicus, UniProt P14842).
5.58

Please report the measured IC50 for `Cc1ccc(C(=C2CCN(CCc3c(C)nc4sccn4c3=O)CC2)c2ccc(C)cc2)cc1` tested on S2-receptor (Rattus norvegicus, UniProt P14842).
1.19

Please report the measured IC50 for `Cc1nc2scc(C)n2c(=O)c1CCN1CCC(=C(c2ccc(F)cc2)c2cccnc2)CC1` tested on S2-receptor (Rattus norvegicus, UniProt P14842).
2.74

Please report the measured IC50 for `Cc1ccc(C(=C2CCN(CCc3c(C)nc4n(c3=O)CCS4)CC2)c2ccccc2)cc1` tested on S2-receptor (Rattus norvegicus, UniProt P14842).
0.175

Please report the measured IC50 for `Cc1nc2n(c(=O)c1CCN1CCC(=C(c3ccccc3)c3ccc(F)cc3)CC1)CCS2` tested on S2-receptor (Rattus norvegicus, UniProt P14842).
2.82

---
Please report the measured IC50 for `Cc1nc2n(c(=O)c1CCN1CCC(=C(c3ccc(F)cc3)c3ccc(Cl)cc3)CC1)CCS2` tested on S2-receptor (Rattus norvegicus, UniProt P14842).
2.62

Please report the measured IC50 for Cc1nc2n(c(=O)c1CCN1CCC(=C(c3ccc(F)cc3)c3ccc(F)cc3)CC1)CCCS2 [Compound 114] tested on S2-receptor (Rattus norvegicus, UniProt P14842).
1.13

Please report the measured IC50 for Cc1cccc(C(=C2CCN(CCc3c(C)nc4n(c3=O)CCCS4)CC2)c2ccc(F)cc2)c1 [Compound 121] tested on S2-receptor (Rattus norvegicus, UniProt P14842).
2.65
